meta.source: patent US10925858B2

Tested on: RhoA
Experiment: RhoA activity assay in thrombin treated hBMVECs
Format: cell-based, human
Settings: thrombin 0.1 unit/ml 5 min; L-NIO or FeTPPS 10 μM pretreated 30 min; GSNO or SIN-1 various concentrations pretreated 2 hr
Description: Cell culture: Primary human brain microvascular endothelial cells (hBMVECs) were purchased from Angio-Proteomie (Cat #: cAP-0002, Atlanta, Ga.). […] RhoA activity in hBMVECs was analyzed by RhoA Activation Assay Kit (Abeam Cat #: ab211164, Cambridge, Mass.). […] Amounts of active (GTP-bound) RhoA were determined by Western blot analysis using antibody specific to RhoA (Abeam).
measuredQuantity: thrombin-induced RhoA activation

Query block: Provide one value: measured thrombin-induced RhoA activation of Cl.O=S(=O)([O-])c1ccc(-c2c3nc(c(-c4ccc(S(=O)(=O)O)cc4)c4ccc([nH]4)c(-c4ccc(S(=O)(=O)O)cc4)c4nc(c(-c5ccc(S(=O)(=O)O)cc5)c5ccc2[nH]5)C=C4)C=C3)cc1.[Fe] [FeTPPS, reference compound]
Result block: decreased

Query block: Provide one value: measured thrombin-induced RhoA activation of CC(=N)NCCC[C@H](N)C(=O)O.Cl.Cl
Result block: decreased
